// values below are reported IC50
Target: Phosphodiesterase 4 (Homo sapiens, UniProt P27815+Q08499+Q07343+Q08493)
Test: Concentration to inhibit 50% of Phosphodiesterase 4 (PDE-4) from guinea pig macrophages
Assay type: protein assay, Cavia porcellus
Conditions: target entry is the homologue from another species

- compound: "COc1ccc(C2(Cc3ccncc3)C(=O)c3ccc(OC4CCN(C)CC4)cc3C2=O)cc1OC1CCCC1 (centres undefined)"
  measurement: "30 nM"
- compound: "COc1ccc(C2(Cc3ccncc3)C(=O)c3ccc(OCc4ccccc4)cc3C2=O)cc1OC1CCCC1 (single isomer, unassigned; (+))"
  measurement: "4 nM"
- compound: "COc1ccc(C2(Cc3ccncc3)C(=O)c3ccc(OC(=O)N4CCC(N5CCCCC5)CC4)cc3C2=O)cc1OC1CCCC1 (centres undefined)"
  measurement: "30 nM"
- compound: "COc1ccc(C2(Cc3ccncc3)Cc3ccccc3C2)cc1OC1CCCC1"
  measurement: "750 nM"
- compound: "COc1ccc(C2(Cc3ccncc3)Cc3cc(OCc4ccccc4)ccc3C2=O)cc1OC1CCCC1 (centres undefined)"
  measurement: "20 nM"
- compound: "CCOc1ccc2c(c1)C(=O)C(Cc1ccncc1)(c1ccc(OC)c(OC3CCCC3)c1)C2=O (centres undefined)"
  measurement: "12 nM"
- compound: "COc1ccc(C2(Cc3ccncc3)C(=O)c3ccc(OCc4ccncc4)cc3C2=O)cc1OC1CCCC1 (centres undefined)"
  measurement: "14 nM"
- compound: "COc1ccc(C2(Cc3ccncc3)C(=O)c3ccccc3C2=O)cc1OC1CCCC1"
  measurement: "30 nM"

Requested read-out: IC50. Entry: `COc1ccc(C2C(=O)c3ccccc3C2=O)cc1OC1CCCC1` > 10000 nM
